# Tested on: PPARg:RXRa DBDmut IVT, anti-RXR (DBD mutation: RXRa K156A/R161A, NR concentration 270 nM, RXRa partner concentration 90 nM)
# Test protocol: PBM binding z-score (relative to random genomic background probes); higher = stronger binding; sequences stand for … in GC…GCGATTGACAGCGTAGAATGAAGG
Metric: PBM binding z-score
Just the number, please.

Example cases with answers are listed next.
>  <Seq text>
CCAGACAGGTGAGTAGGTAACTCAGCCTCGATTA

>  <PBM binding z-score>
2.01

$$$$
>  <Seq text>
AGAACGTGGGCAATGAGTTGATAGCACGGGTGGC

>  <PBM binding z-score>
-0.374

$$$$
>  <Seq text>
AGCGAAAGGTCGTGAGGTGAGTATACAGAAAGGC

>  <PBM binding z-score>
0.425

$$$$
>  <Seq text>
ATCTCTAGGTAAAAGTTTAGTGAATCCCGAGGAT

>  <PBM binding z-score>
2.01

$$$$

Next item in the queue.
Form field: reported PBM binding z-score of AATACAGGGTCACTAGGACAGAGTAGGTACGAAT
3.86
